Provenance of the data: paper PMC10397247

Molecular target: T1, 4H3410-AA
T1 chain: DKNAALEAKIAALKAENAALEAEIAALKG
Experiment: two-hybrid library CCmax;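 further: natural log of median RNA to DNA barcode read ratio; higher means stronger binding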
Details: mean of both orientations
Mark fulfilled only for interaction score values smaller than -0.4; exact matches and larger values are not fulfilled.

Some solved entries appear below for comparison.
>>> assigned_class("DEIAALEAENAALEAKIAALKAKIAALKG [4H174-AA]")
"not fulfilled"
>>> assigned_class("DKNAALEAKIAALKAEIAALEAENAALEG [4H3395-AA]")
"fulfilled"
>>> assigned_class("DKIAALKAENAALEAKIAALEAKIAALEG [4H2725-AA]")
"fulfilled"
>>> assigned_class("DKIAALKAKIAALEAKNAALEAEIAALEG [4H2865-AA]")
"fulfilled"
>>> assigned_class("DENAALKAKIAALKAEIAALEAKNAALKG [4H1864-AA]")
"fulfilled"

[in] Regarding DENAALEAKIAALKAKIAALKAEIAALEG [4H1385-AA] , kindly confirm whether its interaction score is beneath -0.4.
[out] not fulfilled

[in] Determine whether this binder shows interaction score lower than -0.4 (ties excluded): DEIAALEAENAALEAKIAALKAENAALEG [4H171-AA]
[out] fulfilled

[in] Field: below-cutoff. Rule: recorded interaction score strictly less than -0.4. Subject: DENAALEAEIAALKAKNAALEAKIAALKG [4H1142-AA]
[out] not fulfilled

[in] Just wondering, is interaction score of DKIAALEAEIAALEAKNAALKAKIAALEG [4H2109-AA] below -0.4?
[out] not fulfilled

[in] Take the binder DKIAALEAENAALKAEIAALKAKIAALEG [4H2253-AA] and say whether its interaction score is less than -0.4.
[out] fulfilled

[in] Hi there! Is interaction score for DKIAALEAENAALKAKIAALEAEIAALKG [4H2274-AA] below -0.4, do you know?
[out] fulfilled

[in] Just wondering, is interaction score of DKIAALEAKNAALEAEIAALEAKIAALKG [4H2438-AA] below -0.4?
[out] not fulfilled

[in] Please check: interaction score for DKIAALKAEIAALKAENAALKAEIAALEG [4H2649-AA] , strictly under -0.4 or not?
[out] not fulfilled
